protocolDetails: Antagonist activity against Streptococcus pneumoniae D39-pcomX-lacZ strain expressing ComD1 receptor assessed as inhibition of ComD1 receptor activity by beta-galactosidase reporter gene assay
Where a SMILES comes first, the peptide text is derived from it. [ ]: non-standard residue; d: D form. Dap = NC[C@H](N)C(=O)O
measure: pIC50
Just the number, please; pIC50 means minus log10 of the concentration in mol/L.

// field: pIC50; key: CC[C@H](C)[C@H](NC(=O)[C@H](Cc1ccccc1)NC(=O)[C@H](CCCCN)NC(=O)[C@H](CCCNC(=N)N)NC(=O)[C@H](Cc1ccccc1)NC(=O)[C@H](Cc1ccccc1)NC(=O)[C@H](CN)NC(=O)[C@H](CO)NC(=O)[C@H](CC(C)C)NC(=O)[C@H](CCCNC(=N)N)NC(=O)[C@H](CCSC)NC(=O)[C@H](C)N)C(=O)N[C@@H](CC(C)C)C(=O)N[C@@H](CCC(N)=O)C(=O)N[C@@H](CCCNC(=N)N)C(=O)N[C@@H](CCCCN)C(=O)N[C@@H](CCCCN)C(=O)O (H-AMRLS[Dap]FFRKFILQRKK-OH) ; value = 6.34

Cited source: ChEMBL document CHEMBL5143675
